These data points were gathered from patent US20240400708A1.

system: feline FcRn complex (FcRn-α subunit and β-microglobulin), biotin labeled (feline)
methodNotes: SPR, pH 6
parameterMeasured: pKd
Scale: negative log10 of molar concentration, which is what pKd denotes.

Req: Which pKd reading was recorded for the binder feline IgG1a S252H/S434L (antibody, part only; not given: Variable domains, not shown: another chain or arm of the molecule) constant: ASTTAPSVFPLAPSCGTTSGATVALACLVLGYFPEPVTVSWNSGALTSGVHTFPAVLQASGLYSLSSMVTVPSSRWLSDTFTCNVAHPPSNTKVDKTVRKTDHPPGPKPCDCPKCPPPEMLGGPSIFIFPPKPKDTLHISRTPEVTCLVVDLGPDDSDVQITWFVDNTQVYTAKTSPREEQFNSTYRVVSVLPILHQDWLKGKEFKCKVNSKSLPSPIERTISKAKGQPHEPQVYVLPPAQEELSRNKVSVTCLIKSFHPPDIAVEWEITGQPEPENNYRTTPPQLDSDGTYFVYSKLSVDRSHWQRGNTYTCSVSHEALHLHHTQKSLTQSPGK ?
Resp: 8.22

Req: Which pKd reading was recorded for the binder feline IgG1a S428H (antibody, part only; not given: Variable domains, not shown: another chain or arm of the molecule) constant: ASTTAPSVFPLAPSCGTTSGATVALACLVLGYFPEPVTVSWNSGALTSGVHTFPAVLQASGLYSLSSMVTVPSSRWLSDTFTCNVAHPPSNTKVDKTVRKTDHPPGPKPCDCPKCPPPEMLGGPSIFIFPPKPKDTLSISRTPEVTCLVVDLGPDDSDVQITWFVDNTQVYTAKTSPREEQFNSTYRVVSVLPILHQDWLKGKEFKCKVNSKSLPSPIERTISKAKGQPHEPQVYVLPPAQEELSRNKVSVTCLIKSFHPPDIAVEWEITGQPEPENNYRTTPPQLDSDGTYFVYSKLSVDRSHWQRGNTYTCSVHHEALHSHHTQKSLTQSPGK ?
Resp: 7.38
